Assayed system: T1, GRB2-SH2 domain, purified, Atto488-labelled (UniProt P62993 60-152, limits assumed, Atto488 label)
T1 construct: domain: SH2; Individual GRB2 domains generated as described before (Ahmed et al., 2010)
T1 sequence (P62993 60-152 limits assumed): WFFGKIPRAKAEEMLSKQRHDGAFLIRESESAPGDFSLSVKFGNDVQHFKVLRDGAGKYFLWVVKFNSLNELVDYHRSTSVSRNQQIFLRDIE
Run description: MST with the Y111 phosphorylated MRE11 peptide
Where no end group is shown, it is not given here. [ ]: non-standard residue; d: D form. pY = N[C@@H](Cc1ccc(OP(=O)(O)O)cc1)C(=O)O
Experimental readout: pKd
Kindly note that pKd refers to -log10 of the concentration in mol/L and answer with the value alone.

Qu. Answer with the recorded pKd of WVN[pY]QDGNLN (not fully specified, also called Y111 phosphorylated MRE11 peptide; tyrosine phosphorylated peptide) [Tyrosine-phosphorylated MRE11 peptide WVNpYQDGNLN] only.
Ans. 4.33
